test system: UO-31 renal; test: NCI-60 one-dose screen, 48 h; details: 10 µM unless noted
About 83,000 compounds went through this panel and 20% of them were active in at least one assay; those are over-represented in the sample as a whole. Calls of active or inactive are those of the source. Rule for the calls: active = growth percent below 10; inactive = the rest.
Reply using exactly one outcome from active, inactive

Known results for molecules:
molecule	system	class-label
NS(=O)(=O)c1ccc(-c2cc(-c3nnc(SCC(=O)Nc4ccc(C(=O)/C=C/c5ccc(Cl)cc5)cc4)n3-c3ccccc3)c3ccccc3n2)cc1	UO-31 renal	inactive
CCOC(=O)C1=C(C)C(Cl)=N/C1=C\c1[nH]c(Cl)c(C)c1C(=O)OCC	UO-31 renal	inactive
N=C(N)c1ccc(-c2ccc(-c3ccccc3)s2)cc1	UO-31 renal	inactive
CCN1CCN(C(=O)[C@]23CC[C@@H](C)[C@H](C)[C@@H]2C2=CC[C@@H]4[C@@]5(C)C/C(=C/c6cccnc6)C(=O)C(C)(C)[C@@H]5CC[C@@]4(C)[C@]2(C)CC3)CC1	UO-31 renal	inactive
CC(C)(C)n1cc(-c2ccnc(NCCNS(=O)(=O)c3ccc(O)cc3)c2)c(-c2cccc(O)c2)n1	UO-31 renal	inactive

Query: I'd appreciate the recorded outcome for `O=C(Cn1nnc2ccccc21)N/N=C/c1c[nH]c2ccccc12` from this test.
Reply: inactive

Query: Look up the recorded call for `CC1(C)N=C(N)N=C(N)N1c1cccc(CCc2ccccc2)c1` in this test.
Reply: inactive

Query: What did the test return for CCCn1cnc2c(c1=N)C(c1ccc(F)cc1)c1sc3c(F)cccc3c1O2 (stereo not drawn) ?
Reply: inactive
